- ASSAYED_SYSTEM: T1, β1 chain (integrin β1) (human, UniProt P05556 21-798)
- T1 construct: whole, on cells; also called b1; beta1
- T1 sequence (P05556 21-798): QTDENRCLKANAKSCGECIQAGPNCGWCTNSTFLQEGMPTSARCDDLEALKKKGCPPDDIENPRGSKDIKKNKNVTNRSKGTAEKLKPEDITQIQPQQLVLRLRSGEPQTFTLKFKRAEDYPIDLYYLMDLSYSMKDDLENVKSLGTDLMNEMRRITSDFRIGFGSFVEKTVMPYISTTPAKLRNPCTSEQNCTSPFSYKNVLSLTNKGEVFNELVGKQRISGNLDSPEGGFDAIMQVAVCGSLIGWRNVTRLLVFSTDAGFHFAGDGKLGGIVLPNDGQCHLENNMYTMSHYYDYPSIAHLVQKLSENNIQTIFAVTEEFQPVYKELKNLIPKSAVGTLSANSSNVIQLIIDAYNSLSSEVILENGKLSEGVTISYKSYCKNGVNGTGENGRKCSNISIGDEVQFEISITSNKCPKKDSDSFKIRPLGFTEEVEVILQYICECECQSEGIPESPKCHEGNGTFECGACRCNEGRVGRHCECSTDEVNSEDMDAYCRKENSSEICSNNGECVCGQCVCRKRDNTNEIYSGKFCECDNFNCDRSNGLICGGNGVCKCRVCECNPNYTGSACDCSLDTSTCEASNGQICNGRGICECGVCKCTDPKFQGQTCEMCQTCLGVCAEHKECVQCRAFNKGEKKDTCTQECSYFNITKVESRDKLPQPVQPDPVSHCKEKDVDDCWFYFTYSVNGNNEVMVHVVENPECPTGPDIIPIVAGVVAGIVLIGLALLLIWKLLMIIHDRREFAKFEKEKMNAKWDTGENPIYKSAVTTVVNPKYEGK
- ASSAY_NAME: FACS on HT29 cells (α5 null, β1 present); cells alone 2.07, human secondary 2.8
MEASUREMENT_KIND: Binding Geomean
Number only, no unit.

BINDER | Binding Geomean
3F12.4A1 (antibody, IgG2, V domains shown, Isotype IgG2/k) VH: QVQLVESGGGVVQPGRSLRLSCAASGFTFSSYGMHWVRQAPGKGLEWVAVIWYDGTNKYYADSVKGRFTISRDNSKNTLYLQMNSLTAEDTAVYYCARDMAARRGDYYYYYGMDVWGPGTTVTVSS VL: DIVMTQSPLSLPVTPGEPASISCRSSQSLLNGIGYNFLDWYLQKPGQSPQLLIYLGSNRASGVPDRFSGSGSGTDFTLTISRVEAEDVGVYYCMHALQTPFTFGPGTKVDIK | 3.61

Value lookup for Binding Geomean; key = 2H12 (antibody, IgG4, V domains shown, Identified as an IgG4/k antibody; also called MAb 2H12; 2H12 IgG4) VH: QVQLVESGGGVVQPGRSLRLSCAASGFTFSSYGMHWVRQAPGKGLEWVAVIWYDGTNKYYADSVKGRFTISRDNSKTTLYLQMNSLRAEDTAVYYCARDGAARRGDYYYYYGMDVWGQGTTVTVSS VL: DIVMTQSPLSLPVTPGEPASISCRSSQSLLRGHGYSYLDWYLQKPGQSPQLLIYLGSNRASGVPDRFSGSGSGTDFTLKISRVEAEDVGVYYCMQALQTPFTFGPGTKVDIK 2.96

Value lookup for Binding Geomean; key = 2G2.2B5 (antibody, IgG4, V domains shown, Isotype IgG4/k) VH: QVQLVESGGGVVQPGRSLRLSCAASGFTFSSYGMHWVRQAPGKGLEWVAVIWYDGSNKYYADSVKGRFTISRDNSKNTLYLQMNSLRAEDTAVYYCARDGAARRGDYYYYYGMDVWGQGTTVTVSS VL: EIVMTQSPLSLPVTPGEPASISCRSGQSLLQSTGSNYLAWYLQKPGQSPQLLIYLGSNRASGVPDRFSGSGSGTDFTLKISRVEAEDVGVYYCMQALQTPFTFGPGTKVDIK 3.03

Value lookup for Binding Geomean; key = 4G3.3D11 (antibody, IgG4, V domains shown, Isotype IgG4/k) VH: QVQLVESGGGVVQPGRSLRLSCAASGFIFSSYGMHWVRQAPGKGLEWVAVIWYDGTNKYYADSVKGRFTISRDNSKNTLYLQMNSLRAEDTAVYYCARDGAARRGDYYYYYGMDVWGQGTTVTVSS VL: DIVMTQSPLSLPVTPGEPASISCRSSQSLLHGTGYSSLDWYLQKPGQSPQLLIYLGSNRASGVPDRFSGSGSGTDFTLKISRVEAEDVGVYFCMQALQTPFTFGPGTKVDIK 3.06
